These data points were gathered from patent US9232793B2.

- System: Burkholdena cepacia CIP 103924
- Experiment Description: Agar diffusion antimicrobial test, MIC determination
- Format: cell-based
- Condition Details: B. cepacia, pH 7, value in brackets
Measurement Name: MIC

Exercise: Entry under review: CCCCCCCCO[C@H]1O[C@@H](C)[C@@H](O)[C@@H](O)[C@@H]1O [Fuc-8, octyl beta-L-fucoside] . Reported MIC?
Solution: > 1810 µM

* * *

- Test system: Candida albicans IP 48.72
- Experiment Description: Agar diffusion antimicrobial test, MIC determination
- Assay type: cell-based
- Condition Details: C. albicans, pH 7
Listed below: MIC values for each entry.
Report the value in µg/mL with no unit label.

Exercise: Look up MIC for this molecule: CCCCCCCCO[C@H]1O[C@@H](C)[C@@H](O)[C@@H](O)[C@@H]1O [Fuc-8, octyl beta-L-fucoside]
Solution: 100

Exercise: Look up MIC: CCCCCCCCOC1O[C@@H](C)[C@H](O)[C@@H](O)[C@H]1O (stereo partly drawn) [Rha-8, octyl L-rhamnoside]
Solution: 100

Exercise: MIC lookup needed for CCCCCCCCCCCCOC1O[C@@H](C)[C@H](O)[C@@H](O)[C@H]1O (stereo partly drawn) [Rha-12, dodecyl L-rhamnoside] , thanks.
Solution: 50

* * *

- Tested on: Burkholdena cepacia CIP 103924
- Experiment Description: Agar diffusion antimicrobial test, MIC determination
- Format: cell-based
- Condition Details: B. cepacia, pH 7, value in brackets
Measurement Name: MIC (µM)
Write the value in µM as a bare number.

Exercise: Reported MIC for CCCCCCCCOC1O[C@@H](C)[C@H](O)[C@@H](O)[C@H]1O (stereo partly drawn) [Rha-8, octyl L-rhamnoside] : what is it?
Solution: 362

Okay, now this compound:
Exercise: Query (compound): CCCCCCCCCCCCOC1O[C@@H](C)[C@H](O)[C@@H](O)[C@H]1O (stereo partly drawn) [Rha-12, dodecyl L-rhamnoside] ; field requested: MIC
Solution: 301
